Assay: inhibitors of intracellular T. cruzi growth, primary screen, luminescence, NIH3T3 host cells (AID 1885);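 also: signal also drops with host cell toxicity which is not excluded here; 0% = plate median of DMSO wells and 100% = zero luminescence signal; higher percent means less beta-gal luminescence so fewer parasites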
Settings: T. cruzi beta-gal in NIH3T3, luminescence, 90 h; concentration not given here
Screen size: about 300,000 compounds; about 4,400 (1.5%) were called active.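 The calls were made as follows: active = mean inhibition across valid replicates above about 55% (limit read from the data); inconclusive = mean below that limit but half or more replicates reach it; inactive = mean below it, under half of replicates reach it.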 The sample as a whole holds a higher share of actives than the screen did.
Your response should consist of one outcome taken from active, inactive

These recorded examples may help you get a feel for the data.
CC1CCN(C(=S)c2cccc([N+](=O)[O-])c2)CC1; inactive
C=CCc1cc(C)ccc1OCCCn1ccnc1; inactive
Cn1c(=O)n(C)c2cc(NS(=O)(=O)c3ccc(F)cc3)ccc21; inactive
CCn1cc(/C=C(\NC(=O)c2ccc(C)cc2)C(=O)NCCN2CCOCC2)c2ccccc21; inactive

Note: attention shifts to another entry.
Outcome logged for "COc1ccc(N=Cc2c(O)[nH]c3ccccc23)cc1OC" in this assay:
inactive

====

Test: inhibitors of intracellular T. cruzi growth, primary screen, luminescence, NIH3T3 host cells (AID 1885)
Conditions: T. cruzi beta-gal in NIH3T3, luminescence, 90 h; concentration not given here
Screen size: about 300,000 compounds; about 4,400 (1.5%) were called active.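 How the source made its calls: active means mean inhibition across valid replicates above about 55% (limit read from the data); inconclusive means mean below that limit but half or more replicates reach it; inactive means mean below it, under half of replicates reach it.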 Only a selection was taken, and actives are over-represented in it overall.
Your response should consist of one outcome taken from 1.0 for active, 0.0 for inactive

These recorded examples may help you get a feel for the data.
CC(C)(C)NC(=O)Cn1cnc([N+](=O)[O-])n1; 0.0
O=C(Cn1cnc([N+](=O)[O-])n1)NCCc1ccccc1; 1.0

Note: attention shifts to another entry.
Outcome logged for COc1ccc(C2CC(c3ccccc3)=NN2C(=O)c2ccc(Cl)c([N+](=O)[O-])c2)cc1 (stereo not drawn) in this assay:
1.0

====

Assay: inhibitors of intracellular T. cruzi growth, primary screen, luminescence, NIH3T3 host cells (AID 1885)
Conditions: T. cruzi beta-gal in NIH3T3, luminescence, 90 h; concentration not given here
The whole screen tested about 300,000 compounds, of which about 4,400 (1.5%) were called active.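 How the source made its calls: active means mean inhibition across valid replicates above about 55% (limit read from the data); inconclusive means mean below that limit but half or more replicates reach it; inactive means mean below it, under half of replicates reach it.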 The entries come from a sample that favours actives as a whole.
Your response should consist of one outcome taken from active, inactive

These recorded examples may help you get a feel for the data.
COc1ccc(CCNC(=O)CN2C(=O)COc3ccc(S(=O)(=O)N4CCCC4)cc32)cc1OC; inactive
Cc1cc(C(=O)NC2CCN(Cc3ccccc3)CC2)n[nH]1; inactive
O=C(NC1CCN(Cc2ccccc2)CC1)c1ccc(Oc2cc(Cl)cc(Cl)c2)o1; inactive
c1ccc(C2=Nc3cccc4cccc(c34)N2)cc1; inactive
S=C(Nc1ccc(Br)cc1)NC1CCN(Cc2ccccc2)CC1; inactive
Cc1cc(C)c2nc(-c3ccco3)cc(C(=O)O)c2c1; inactive
CN(C)CCOCCOc1ccc(Cl)c2ccccc12; inactive

Note: attention shifts to another entry.
Outcome logged for "S=C(Nc1ccc(Br)cc1Cl)NC1CCN(Cc2ccccc2)CC1" in this assay:
active

====

Assay: inhibitors of intracellular T. cruzi growth, primary screen, luminescence, NIH3T3 host cells (AID 1885)
Conditions: T. cruzi beta-gal in NIH3T3, luminescence, 90 h; active compounds read high; concentration not given here
Screen size: about 300,000 compounds; about 4,400 (1.5%) were called active. Many of the other results were omitted from the sample, so actives are more common in it than they were.
measurement.label: inhibition (%)
Number in %, nothing else.

Answered cases to consult:
CCOc1ccccc1N1CCN(C(=O)COc2ccc3c(C)cc(=O)oc3c2)CC1; 24
Clc1ccc(-c2cc(-c3ccccn3)on2)c(Cl)c1; 14.9
CN1C(C(=O)NCC2CC2)CC2Cn3c(nc4ccccc43)C21 (configuration not stated); -19
Cc1c(-c2ccccc2)nc(N)c(C#N)c1-c1cccs1; 0.738

Record summary for "Cc1cc(=O)oc2cc(OCCC[n+]3ccccc3)ccc12" : reported inhibition = 1.14

Record summary for CC(NC(=O)CSc1nc2c(cc1C#N)CN(C)CC2)c1ccccc1 (configuration not stated) : reported inhibition = 1.88

Record summary for COc1ccc(C(=O)CN2C(=O)NC3(CCc4ccccc43)C2=O)c(OC)c1 (configuration not stated) : reported inhibition = 1.63

Record summary for "CC(C)(C)n1cnnc1Sc1ccc([N+](=O)[O-])cn1" : reported inhibition = -5.35

Record summary for "Cc1cccc(C(=O)c2cccc(C)c2)c1" : reported inhibition = -0.776

Record summary for "CCN1CCN(c2ccc(S(=O)(=O)N3CCCCC3)cc2NC(=O)Cc2c(Cl)cccc2Cl)CC1" : reported inhibition = 65.7

Record summary for O=C1CSC(c2ccccc2)N1c1nc(-c2ccc(Cl)cc2Cl)cs1 (configuration not stated) : reported inhibition = 28.7

Record summary for "N#Cc1cc([N+](=O)[O-])ccc1Oc1cccc(/C=N/NC(=O)c2ccc(Cl)cc2)c1" : reported inhibition = 74.5

Record summary for CC1(c2ccccc2)CC(C)(C)N(C(=O)c2cc([N+](=O)[O-])cc([N+](=O)[O-])c2)c2ccccc21 (configuration not stated) : reported inhibition = 62.7

Record summary for Cc1ccc(C(=O)NNC(=O)C(C)Oc2ccc3ccccc3c2)o1 (configuration not stated) : reported inhibition = -1.31

Record summary for "Cc1cc(OCCCN2CCN(Cc3ccccc3)CC2)ccc1[N+](=O)[O-]" : reported inhibition = 55.7

Record summary for O=C(NCCC1CCCCN1S(=O)(=O)c1ccc(F)cc1)C(=O)NC1CC1 (configuration not stated) : reported inhibition = -6.12

Record summary for Cc1ccc(NC(=O)c2cnc(SCC(=O)NCC3CCCO3)n(C)c2=O)cc1 (configuration not stated) : reported inhibition = -7.14

====

Measured inhibition, listed per entry for reference.
Assay: inhibitors of intracellular T. cruzi growth, primary screen, luminescence, NIH3T3 host cells (AID 1885)
Details: T. cruzi beta-gal in NIH3T3, luminescence, 90 h; active compounds read high; concentration not given here
Hit rate of the full screen: of about 300,000 compounds, about 4,400 (1.5%) were called active. The sample as a whole holds a higher share of actives than the screen did.
Number in %, nothing else.

Record summary for "COc1ccc(Oc2c(Cl)cnn(-c3ccccc3)c2=O)cc1" : reported inhibition = -11.4

====

Assay: inhibitors of intracellular T. cruzi growth, primary screen, luminescence, NIH3T3 host cells (AID 1885);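 also: signal also drops with host cell toxicity which is not excluded here; 0% = plate median of DMSO wells and 100% = zero luminescence signal; higher percent means less beta-gal luminescence so fewer parasites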
Settings: T. cruzi beta-gal in NIH3T3, luminescence, 90 h; active compounds read high; concentration not given here
The campaign covered roughly 300,000 compounds. About 4,400 (1.5%) were called active. This excerpt belongs to a sample that is enriched for actives.
Measured inhibition, listed per entry for reference.
Number in %, nothing else.

CCNC(=O)COc1cc(C)c(Br)c(C)c1; 8.23
COc1ccc(N2CC(NS(=O)(=O)c3ccc4ccccc4c3)CC2=O)cc1 (configuration not stated); -4.61
COc1ccc(CCNC(=O)C2CCCN(Cc3nc(-c4cccc(Cl)c4)oc3C)C2)cc1OC (configuration not stated); 61.6
COc1ccc(C)cc1S(=O)(=O)Nc1cccc(Cl)c1Cl; 8.72
O=C(NC(Cc1ccccc1)C(=O)N1CCCC(C(F)(F)F)C1)c1ccccc1 (configuration not stated); -16.5
O=C(NNS(=O)(=O)c1ccc(F)cc1)C1CCCCC1; -13.6

Record summary for COc1cc(CN2CCCC(C(=O)c3ccc(SC)cc3)C2)cc(Cl)c1O (configuration not stated) : reported inhibition = 24.2

====

Measured inhibition, listed per entry for reference.
Assay: inhibitors of intracellular T. cruzi growth, primary screen, luminescence, NIH3T3 host cells (AID 1885);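 also: signal also drops with host cell toxicity which is not excluded here; 0% = plate median of DMSO wells and 100% = zero luminescence signal; higher percent means less beta-gal luminescence so fewer parasites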
Conditions: T. cruzi beta-gal in NIH3T3, luminescence, 90 h; active compounds read high; concentration not given here
Among all 300,000 compounds or so, about 4,400 (1.5%) were called active. This is one part of a sample in which actives are shown more often than they occur.
Number in %, nothing else.

Answered cases to consult:
CC1CCC2CCCCC2N1C(=O)c1cc([N+](=O)[O-])cc([N+](=O)[O-])c1 (stereo unspecified); 56
COc1ccc(NC(=O)C(=O)NCC(c2ccco2)N2CCc3ccccc3C2)cc1 (stereo unspecified); 9.29
CC1(C)CC(N2CCN(C(c3ccccc3)c3ccccc3)CC2)=CC(=[N+]2CCCCC2)C1; 63.6

Record summary for "CN1CCN(c2ccc(NC(=O)c3ccc4c(c3)[nH]c(=O)n4Cc3ccc(F)cc3)cc2)CC1" : reported inhibition = 65.8

Record summary for "NC(=O)c1ccccc1NC(=O)c1ccccc1F" : reported inhibition = -8.84

Record summary for "CCCCN(C(=O)c1ccc(C)o1)c1c(N)n(CCCC)c(=O)[nH]c1=O" : reported inhibition = -0.399

Record summary for "CCCCCC(=O)N1CCN(S(=O)(=O)c2ccc3c(c2)OCCCO3)CC1" : reported inhibition = -5.19

Record summary for "O=C(N/N=C/c1cc(Br)c(O)c([N+](=O)[O-])c1)C(O)(c1ccccc1)c1ccccc1" : reported inhibition = -7.65

====

Assay: inhibitors of intracellular T. cruzi growth, primary screen, luminescence, NIH3T3 host cells (AID 1885);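 also: signal also drops with host cell toxicity which is not excluded here; 0% = plate median of DMSO wells and 100% = zero luminescence signal; higher percent means less beta-gal luminescence so fewer parasites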
Settings: T. cruzi beta-gal in NIH3T3, luminescence, 90 h; active compounds read high; concentration not given here
The whole screen tested about 300,000 compounds, of which about 4,400 (1.5%) were called active. The sample holds actives, similar compounds and a random draw of the others, so the mix is not that of the screen.
measurement.label: inhibition (%)
Number in %, nothing else.

Answered cases to consult:
COc1ccc(C(=O)COC(=O)COc2ccc(C)c(C)c2)cc1; 4.19
Cc1cc(C(=O)CCl)c(C)n1CC1COc2ccccc2O1 (stereo not given); 60.4
Cc1cccc(-n2ncc(Cl)c(Cl)c2=O)c1; 65.8
COc1ccccc1N(CC(=O)N/N=C(\C)c1ccccc1O)S(=O)(=O)c1ccc(C)cc1; 65.9
O=C(NC(=S)Nc1ccccc1C(=O)O)c1ccc(-c2ccc(Br)cc2)o1; 61.6
O=C(O)c1ccn(COc2ccc(Br)cc2)n1; -13.4
c1ccc(Cc2ccc(OCCn3ccnc3)cc2)cc1; 28.2
CC(=O)c1cccc(CN2CCC(CO)(Cc3ccccc3)CC2)c1; 11.2
COc1c(C)c2c(c(O)c1C/C=C(\C)CCC(=O)O)C(=O)OC2; 62.2
OCC1(Cc2ccccc2)CCN(Cc2cc3ccccc3o2)CC1; 16.6

Record summary for "CCOc1ccc(S(=O)(=O)N2CCC(C(=O)OCc3ccc(OC)cc3)CC2)cc1" : reported inhibition = -1.31
